Please provide measured GI50 for the entries that follow.
System: HT-29
Test: NCI tumour cell line growth inhibition, 48 h
Calls of active or inactive are those of the source. No stated cut-off is given here; in the data, active = GI50 up to about 1.1 µM and inactive = higher.

According to the records, this compound Cc1cc(=O)n2nc(CSc3nnc(N)s3)sc2n1 displays GI50 of > 100 µM (inactive)

According to the records, this compound Cc1cc(NS(=O)(=O)c2ccc(NC(=O)c3ccc4[nH]c5ccccc5c(=O)c4c3)cc2)no1 displays GI50 of > 100 µM (inactive)

According to the records, this compound COc1ccccc1NC(=O)C1=C(C)NC(C)=C(C(=O)Nc2ccccc2OC)C1c1ccc(C(C)C)cc1 displays GI50 of > 100 µM (inactive)

According to the records, this compound CC(C)(C)OC(=O)C1C(=O)NC(=O)CC1C(COCc1ccccc1)OCc1ccccc1 (stereo not given) displays GI50 of 18.7 µM (inactive)

According to the records, this compound CN(C)CCCn1cnc2cc(Cl)c(Cl)cc21 displays GI50 of 72.3 µM (inactive)
